biological target: Fes (UniProt P07332); test: phosphorylation enrichment, bacterial display (enrichment ratio); higher = better substrate or ligand; peptides without Tyr show the background
Sequence (P07332 whole entry, looked up): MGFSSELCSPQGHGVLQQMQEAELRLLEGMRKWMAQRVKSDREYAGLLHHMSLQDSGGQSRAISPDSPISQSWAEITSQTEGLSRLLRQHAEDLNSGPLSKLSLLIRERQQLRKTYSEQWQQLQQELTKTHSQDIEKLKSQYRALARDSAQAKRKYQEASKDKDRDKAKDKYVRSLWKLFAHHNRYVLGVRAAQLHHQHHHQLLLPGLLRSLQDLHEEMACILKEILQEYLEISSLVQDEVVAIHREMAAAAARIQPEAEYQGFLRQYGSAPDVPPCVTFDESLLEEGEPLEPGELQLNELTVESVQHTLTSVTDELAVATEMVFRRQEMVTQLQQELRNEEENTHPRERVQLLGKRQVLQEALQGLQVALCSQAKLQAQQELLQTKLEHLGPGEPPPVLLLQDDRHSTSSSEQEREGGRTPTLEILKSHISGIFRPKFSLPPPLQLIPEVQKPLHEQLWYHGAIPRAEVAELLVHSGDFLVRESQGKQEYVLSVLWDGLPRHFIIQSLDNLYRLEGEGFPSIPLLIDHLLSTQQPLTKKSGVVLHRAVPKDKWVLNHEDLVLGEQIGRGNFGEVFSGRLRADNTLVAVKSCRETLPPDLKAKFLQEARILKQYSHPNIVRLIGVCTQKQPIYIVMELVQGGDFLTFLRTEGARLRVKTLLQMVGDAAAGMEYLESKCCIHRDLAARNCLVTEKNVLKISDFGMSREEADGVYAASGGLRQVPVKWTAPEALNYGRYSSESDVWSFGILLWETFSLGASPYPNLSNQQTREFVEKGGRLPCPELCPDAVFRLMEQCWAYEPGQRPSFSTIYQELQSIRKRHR
Here the recorded phosphorylation enrichment is given for each entry.
Enter the number alone.

CTTIHYDYMCN [TP53_Y234_N235D]
0.994
RMETEYGPSVT [MXRA5_Y2717]
1.01
MDNQEYKDAYK [BRDT_Y331]
1.12

Now consider the entry below.
Provide phosphorylation enrichment, tested on Fes (UniProt P07332), for NFDRVYIYHLR [MYOF_Y1137] .
1.23

---

biological target: Grb2 SH2 (UniProt P62993); experiment: SH2 binding enrichment of the phosphorylated peptide, bacterial display (enrichment ratio); higher = better substrate or ligand; peptides without Tyr show the background
Sequence (P62993 whole entry, looked up): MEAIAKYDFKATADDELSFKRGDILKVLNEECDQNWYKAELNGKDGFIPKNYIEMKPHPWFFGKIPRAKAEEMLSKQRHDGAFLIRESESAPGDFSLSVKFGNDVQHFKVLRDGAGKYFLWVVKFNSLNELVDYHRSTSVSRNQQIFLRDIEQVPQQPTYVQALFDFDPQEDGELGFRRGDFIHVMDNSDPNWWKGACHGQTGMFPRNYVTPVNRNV
Decision: SH2 binding enrichment compared against 0.9; not below it gives Criterion met, below it gives Criterion not met.

Use these answered entries as a reference point.
ADRNHYRRYRR [YBX1_Y145_P149R]
Criterion not met
ESKKHYGYSLY [ANXA3_Y295_F291S]
Criterion not met
GMEIVYVFVKK [DNAI2_Y5_YF]
Criterion met
NIWDSYTTNKV [GNB1_Y85_I80N]
Criterion met
DDSSAYCSVDE [BCKDHA_Y345_R346C]
Criterion met
SNMPSYSGHFT [GRIN2A_Y1224_T1223S]
Criterion not met
QRIHDYYEHRY [HCN4_Y554]
Criterion met
CLRIDYERVSQ [DSP_Y1542_R1537C]
Criterion not met
LESILYESSVV [TRPV4_Y91_T89I]
Criterion not met
GNLQEYLTRHV [TGFBR2_Y336]
Criterion not met

Dear colleague, could you confirm whether HTEGEYSSLEH [IDH3B_Y171_Q166H] has SH2 binding enrichment at or above 0.9?
Criterion not met

Dear colleague, could you confirm whether AESPEHVHMYT [FAM111A_Y511_Y511H] has SH2 binding enrichment at or above 0.9?
Criterion not met

Dear colleague, could you confirm whether LDPDSYNKFEN [FOXC1_Y159_M161K] has SH2 binding enrichment at or above 0.9?
Criterion not met

Dear colleague, could you confirm whether VATRWYWSPEL [CDKL5_Y177_R178W] has SH2 binding enrichment at or above 0.9?
Criterion met

Dear colleague, could you confirm whether ADSLRYIYPKL [EIF2B3_Y92] has SH2 binding enrichment at or above 0.9?
Criterion met

Dear colleague, could you confirm whether LERFIYNREEL [HLA-DPB1_Y59_F64L_YF] has SH2 binding enrichment at or above 0.9?
Criterion met

Dear colleague, could you confirm whether PNRILYRDFRQ [MYH7_Y715_G716R] has SH2 binding enrichment at or above 0.9?
Criterion not met

Dear colleague, could you confirm whether GQAPGYSFTAA [CYCS_Y47_YF] has SH2 binding enrichment at or above 0.9?
Criterion not met

---

test system: c-Abl (mouse); assay: phosphorylation enrichment, bacterial display (enrichment ratio); higher = better substrate or ligand; peptides without Tyr show the background
Here the recorded phosphorylation enrichment is given for each entry.
Enter the number alone.

Worked cases, phosphorylation enrichment given:
MDNQEYKDAYK [BRDT_Y331]
0.677
RNIQQHNSFVS [PRKAR1A_Y373_Y373H]
0.438

Return phosphorylation enrichment for the following sequence: VATRWYQSPEL [CDKL5_Y177_R178Q]
0.512

Return phosphorylation enrichment for the following sequence: KGTAGYTTVAV [RET_Y752_R749T]
0.448

Return phosphorylation enrichment for the following sequence: RSRSPYSSRHS [CDK13_Y415]
0.637

Return phosphorylation enrichment for the following sequence: FFVVEYRDQKP [MUC17_Y4332_YF]
0.617

Return phosphorylation enrichment for the following sequence: EGWQVYRLGAR [MISP_Y95]
0.625

---

molecular target: Fes (UniProt P07332); experiment: phosphorylation enrichment, bacterial display (enrichment ratio); higher = better substrate or ligand; peptides without Tyr show the background
Here the recorded phosphorylation enrichment is given for each entry.
Enter the number alone.

Worked cases, phosphorylation enrichment given:
MAYDRYVAICS [OR8D4_Y123_C120Y]
1.01
NRLTDYFEPLL [BBS10_Y536_YF]
0.993
HGEAFYSEVKA [PAK5_Y182_P187A_YF]
1.01

Return phosphorylation enrichment for the following sequence: DDSSAYCSVDE [BCKDHA_Y345_R346C]
1

---

target: Hck (UniProt P08631); assay: phosphorylation enrichment, bacterial display (enrichment ratio); higher = better substrate or ligand; peptides without Tyr show the background
Sequence (P08631 whole entry, looked up): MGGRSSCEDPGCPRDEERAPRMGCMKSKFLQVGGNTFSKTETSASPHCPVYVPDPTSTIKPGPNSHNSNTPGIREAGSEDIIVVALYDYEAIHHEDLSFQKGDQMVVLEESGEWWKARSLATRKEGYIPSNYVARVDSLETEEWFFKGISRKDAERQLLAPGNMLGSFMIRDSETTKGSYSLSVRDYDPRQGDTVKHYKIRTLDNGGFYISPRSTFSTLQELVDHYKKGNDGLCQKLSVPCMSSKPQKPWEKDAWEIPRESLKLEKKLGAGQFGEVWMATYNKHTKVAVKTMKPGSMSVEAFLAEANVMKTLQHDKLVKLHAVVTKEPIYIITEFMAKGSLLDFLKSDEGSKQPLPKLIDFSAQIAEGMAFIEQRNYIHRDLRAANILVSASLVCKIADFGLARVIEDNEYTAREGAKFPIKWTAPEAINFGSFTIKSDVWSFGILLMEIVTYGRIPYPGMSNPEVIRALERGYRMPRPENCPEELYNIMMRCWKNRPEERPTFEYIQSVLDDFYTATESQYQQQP
Here the recorded phosphorylation enrichment is given for each entry.
Enter the number alone.

HSKGIYYVQLE [MGAT4B_Y262_Q257H]
2.88
GAAMLYYPSVS [GPR143_Y177]
1.46
LLLLFCVVRFC [MPZ_Y177_Y177C_YF]
0.75

Return phosphorylation enrichment for the following sequence: DSSIRYLQEIF [FGG_Y135_YF]
0.527

Return phosphorylation enrichment for the following sequence: ARKRKYFKKHE [NFIX_Y40]
0.605

---

Here the recorded phosphorylation enrichment is given for each entry.
target: EPHB2 (UniProt P29323); assay: phosphorylation enrichment, bacterial display (enrichment ratio); higher = better substrate or ligand; peptides without Tyr show the background
Sequence (P29323 whole entry, looked up): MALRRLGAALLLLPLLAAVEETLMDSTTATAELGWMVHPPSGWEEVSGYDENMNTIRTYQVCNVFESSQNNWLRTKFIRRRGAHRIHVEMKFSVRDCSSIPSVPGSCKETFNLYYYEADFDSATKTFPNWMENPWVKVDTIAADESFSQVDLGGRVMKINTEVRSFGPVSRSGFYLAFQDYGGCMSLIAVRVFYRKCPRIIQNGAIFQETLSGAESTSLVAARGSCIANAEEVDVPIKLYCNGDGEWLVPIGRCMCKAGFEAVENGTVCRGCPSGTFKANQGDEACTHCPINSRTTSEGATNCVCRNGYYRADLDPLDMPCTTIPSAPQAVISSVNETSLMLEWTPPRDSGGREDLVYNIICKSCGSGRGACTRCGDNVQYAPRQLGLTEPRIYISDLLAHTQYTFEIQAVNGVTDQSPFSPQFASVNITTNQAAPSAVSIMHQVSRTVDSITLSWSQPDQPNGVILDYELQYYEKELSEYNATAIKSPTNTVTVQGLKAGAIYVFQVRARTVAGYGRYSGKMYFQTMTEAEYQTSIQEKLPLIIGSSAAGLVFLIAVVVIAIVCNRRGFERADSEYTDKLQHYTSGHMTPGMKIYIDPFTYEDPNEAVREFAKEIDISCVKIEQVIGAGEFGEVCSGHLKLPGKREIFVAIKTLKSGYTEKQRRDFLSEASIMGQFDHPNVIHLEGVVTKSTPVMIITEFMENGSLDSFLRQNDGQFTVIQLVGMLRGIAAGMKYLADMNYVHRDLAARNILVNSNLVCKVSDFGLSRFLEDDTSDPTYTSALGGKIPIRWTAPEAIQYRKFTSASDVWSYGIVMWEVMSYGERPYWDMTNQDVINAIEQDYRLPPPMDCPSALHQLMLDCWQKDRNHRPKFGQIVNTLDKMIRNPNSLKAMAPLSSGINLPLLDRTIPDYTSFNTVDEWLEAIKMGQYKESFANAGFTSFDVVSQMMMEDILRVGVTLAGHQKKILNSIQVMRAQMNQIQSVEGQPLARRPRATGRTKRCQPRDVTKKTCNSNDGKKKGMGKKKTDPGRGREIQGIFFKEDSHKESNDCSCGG
Enter the number alone.

Return phosphorylation enrichment for the following sequence: YDCGMYSHLQG [LGR4_Y848]
1.29

---

target: c-Src SH2; assay: SH2 binding enrichment of the phosphorylated peptide, bacterial display (enrichment ratio); higher = better substrate or ligand; peptides without Tyr show the background
PROPERTY: SH2 binding enrichment
Enter the number alone.

Worked cases, SH2 binding enrichment given:
PPGRSYSPFDF [TNS1_Y793_YF]
0.512
DWQQEYVLNES [TGM1_Y267_R264Q]
0.506
RFVSRYIFNRE [HLA-DQB1_Y62_T60S_YF]
0.499
GRTGHYLCNAC [GATA1_Y223_D218G]
0.917
DDPRTYQKYGY [OAS1_Y362_R361T]
0.598
SHLSSYTTHPQ [NIPBL_Y195_P192L]
0.482
DNEAIYDICRC [TUBA4A_Y210_R215C]
0.524
AAETTYDKILK [GDNF_Y156]
3.75
LSVEIHDRREF [ITGB7_Y753_Y753H_YF]
0.421
DPHKIFEFVNS [IRF3_Y107_Y107F]
0.425

Provide SH2 binding enrichment, tested on c-Src SH2, for RFLERYIFNPE [HLA-DPB1_Y57_R61P_YF] .
0.794

Provide SH2 binding enrichment, tested on c-Src SH2, for KKKKQYKGKYL [CASK_Y708_D710G] .
0.436

Provide SH2 binding enrichment, tested on c-Src SH2, for AEYGLYGAMVR [VSX2_Y222] .
0.508

---

biological target: FGFR3 (UniProt P22607); test: phosphorylation enrichment, bacterial display (enrichment ratio); higher = better substrate or ligand; peptides without Tyr show the background
Sequence (P22607 whole entry, looked up): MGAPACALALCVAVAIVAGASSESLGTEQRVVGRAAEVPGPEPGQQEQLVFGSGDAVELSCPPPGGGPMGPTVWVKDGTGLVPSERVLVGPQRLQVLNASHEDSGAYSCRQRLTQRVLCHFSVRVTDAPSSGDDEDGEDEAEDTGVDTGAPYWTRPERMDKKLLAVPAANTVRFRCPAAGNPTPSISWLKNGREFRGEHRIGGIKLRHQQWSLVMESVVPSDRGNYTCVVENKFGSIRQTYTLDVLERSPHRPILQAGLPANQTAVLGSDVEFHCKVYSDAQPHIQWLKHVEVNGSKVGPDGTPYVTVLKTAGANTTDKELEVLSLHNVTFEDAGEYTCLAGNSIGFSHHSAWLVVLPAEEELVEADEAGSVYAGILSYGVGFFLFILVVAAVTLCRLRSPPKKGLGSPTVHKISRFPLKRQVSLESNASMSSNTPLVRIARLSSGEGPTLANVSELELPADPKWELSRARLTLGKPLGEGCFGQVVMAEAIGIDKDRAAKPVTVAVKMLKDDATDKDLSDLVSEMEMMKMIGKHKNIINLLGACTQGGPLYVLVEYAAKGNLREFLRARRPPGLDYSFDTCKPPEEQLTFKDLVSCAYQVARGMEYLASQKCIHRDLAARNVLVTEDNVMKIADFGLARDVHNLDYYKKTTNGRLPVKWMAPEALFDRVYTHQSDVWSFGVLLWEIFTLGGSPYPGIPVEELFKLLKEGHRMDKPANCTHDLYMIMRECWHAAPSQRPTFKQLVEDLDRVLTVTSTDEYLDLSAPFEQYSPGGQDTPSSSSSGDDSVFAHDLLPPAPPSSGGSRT
Decision: phosphorylation enrichment compared against 0.7; not below it gives condition met, below it gives condition not met.

Use these answered entries as a reference point.
QYNMQYSSSAA [ERBB2IP_Y981_I979M]
condition not met
RVEDACILTCN [CCT6A_Y229_Y229C]
condition met
PPKFFYTRKLL [CYBB_Y41]
condition not met
SVTCTYSPAIN [TP53_Y126_L130I]
condition met
SARVRYLMAEK [LDHB_Y173_F171V]
condition not met
SVDRDYVLKSA [HTATIP2_Y111_R106S]
condition not met

Dear colleague, could you confirm whether LKRIAYFLCLR [LGI1_Y21_L26R] has phosphorylation enrichment at or above 0.7?
condition not met

Dear colleague, could you confirm whether QKDIFYGLRSL [IGSF10_Y126_T124I] has phosphorylation enrichment at or above 0.7?
condition met

Dear colleague, could you confirm whether SHMVNYQPYRK [TEX37_Y25_D24N] has phosphorylation enrichment at or above 0.7?
condition not met

---

target: c-Src SH2; assay: SH2 binding enrichment of the phosphorylated peptide, bacterial display (enrichment ratio); higher = better substrate or ligand; peptides without Tyr show the background
PROPERTY: SH2 binding enrichment

Worked cases, SH2 binding enrichment given:
LTERGYSFVTT [ACTA1_Y200]
7.8
ESPGLCGFLNV [BCR_Y910_Y910C]
0.377

Provide SH2 binding enrichment, tested on c-Src SH2, for DWRQEYVLNES [TGM1_Y267] .
0.449

Provide SH2 binding enrichment, tested on c-Src SH2, for YAADYYKLLGN [ROR2_Y646] .
0.504

Provide SH2 binding enrichment, tested on c-Src SH2, for RPGSGYTNIMQ [PKLR_Y564_R569Q] .
2.99

Provide SH2 binding enrichment, tested on c-Src SH2, for FFVVEYRNQKP [MUC17_Y4332_D4334N_YF] .
0.865

Provide SH2 binding enrichment, tested on c-Src SH2, for LKRIAYFLCLR [LGI1_Y21_L26R] .
0.583

Attribution: the supplement of paper PMC10065799
